Values compiled from patent US20230139171A1.

- Target or system: human TLR8 (Homo sapiens, UniProt Q9NR97)
- Construct: host or cells: HEK-Blue cells
- Sequence (Q9NR97 27-1041): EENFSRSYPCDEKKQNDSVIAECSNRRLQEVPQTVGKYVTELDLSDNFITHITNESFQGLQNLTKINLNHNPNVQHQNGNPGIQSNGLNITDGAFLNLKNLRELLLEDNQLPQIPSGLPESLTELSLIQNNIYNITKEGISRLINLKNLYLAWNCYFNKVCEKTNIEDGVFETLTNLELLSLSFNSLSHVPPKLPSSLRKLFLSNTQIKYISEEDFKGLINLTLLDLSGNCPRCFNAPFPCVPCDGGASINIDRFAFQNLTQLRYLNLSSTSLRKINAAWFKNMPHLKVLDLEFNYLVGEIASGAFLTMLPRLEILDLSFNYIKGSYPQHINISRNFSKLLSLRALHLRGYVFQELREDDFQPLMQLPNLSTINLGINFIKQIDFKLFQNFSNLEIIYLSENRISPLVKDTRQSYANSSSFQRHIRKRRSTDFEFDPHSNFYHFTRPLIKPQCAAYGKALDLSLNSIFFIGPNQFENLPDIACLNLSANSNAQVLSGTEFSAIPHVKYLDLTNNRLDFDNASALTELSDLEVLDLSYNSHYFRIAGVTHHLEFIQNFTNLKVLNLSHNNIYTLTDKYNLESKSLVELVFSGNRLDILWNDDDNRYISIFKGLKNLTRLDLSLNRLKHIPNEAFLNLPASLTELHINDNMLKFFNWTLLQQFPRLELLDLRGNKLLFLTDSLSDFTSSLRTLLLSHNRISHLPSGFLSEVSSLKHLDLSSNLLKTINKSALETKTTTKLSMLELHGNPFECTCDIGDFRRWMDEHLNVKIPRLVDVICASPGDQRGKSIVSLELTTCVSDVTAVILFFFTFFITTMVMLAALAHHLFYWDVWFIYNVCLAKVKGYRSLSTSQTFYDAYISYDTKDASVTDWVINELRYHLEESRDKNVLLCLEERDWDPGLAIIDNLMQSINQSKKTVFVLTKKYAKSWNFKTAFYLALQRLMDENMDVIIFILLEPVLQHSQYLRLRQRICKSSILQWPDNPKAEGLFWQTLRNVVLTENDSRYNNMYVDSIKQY
- Test: TLR8 inhibition reporter assay (HEK-Blue cells, SEAP reporter, R848 stimulation)
- Format: cell-based
- Condition details: HEK-Blue cells overexpressing human TLR8, SEAP reporter, R848 15.9 μM; read-out: TLR8 IC50
Binning rule for recorded IC50: class 0 = under 3 nM, class 1 = from 3 nM up to 20 nM, class 2 = 20 nM and over

{"Compound": "Cc1c(-c2[nH]c3sc(C4CCC(N5CC(F)(F)C5)CC4)nc3c2C(C)C)cn2ncnc2c1C (single isomer, unassigned) [Example 218]", "Assigned label": "class 1"}
{"Compound": "Cc1c(-c2[nH]c3sc(C4CCN(CC(C)C)CC4)nc3c2C(C)C)cn2ncnc2c1C [Example 52]", "Assigned label": "class 1"}
{"Compound": "CC(C)c1c(-c2ccc(C#N)c3ncccc23)[nH]c2sc(C3CCN(C4CCOCC4)CC3)nc12 [Example 38]", "Assigned label": "class 1"}
{"Compound": "Cc1c(-c2[nH]c3sc(C4CCC(N5CCC6(CC5)COC6)CC4)nc3c2C(C)C)cn2ncnc2c1C (single isomer, unassigned) [Example 238]", "Assigned label": "class 1"}
{"Compound": "Cc1c(-c2[nH]c3sc(N4C[C@@H](C)NC[C@@H]4C)nc3c2C(C)C)cn2ncnc2c1C [Example 309]", "Assigned label": "class 1"}
{"Compound": "COc1cc(-c2[nH]c3sc(C4CCC(NC[C@@H](F)C(C)(C)O)CC4)nc3c2C(C)C)cn2ncnc12 (single isomer, unassigned) [Example 90]", "Assigned label": "class 0"}
{"Compound": "CC(C)c1c(-c2cn(C)c3ncccc23)[nH]c2sc(C3CCN(C(=O)CN(C)C)CC3)nc12 [Example 32]", "Assigned label": "class 1"}
{"Compound": "Cc1c(-c2[nH]c3sc(CNC4CCN(C(C)C)CC4)nc3c2C(C)C)cn2ncnc2c1C [Example 401]", "Assigned label": "class 2"}
{"Compound": "COc1cc(-c2[nH]c3sc(C4CCC(NC5CC6(CNC6)C5)CC4)nc3c2C(C)C)cn2ncnc12 (single isomer, unassigned) [Example 117]", "Assigned label": "class 2"}
{"Compound": "COc1cc(-c2[nH]c3sc(C4CCC(NC5CC6(CNC6)C5)CC4)nc3c2C(C)C)cn2ncnc12 (single isomer, unassigned) [Example 116]", "Assigned label": "class 0"}
{"Compound": "COc1cc(-c2[nH]c3sc(C4CCC(N5CCS(=O)(=O)CC5)CC4)nc3c2C(C)C)cn2ncnc12 (single isomer, unassigned) [Example 83]", "Assigned label": "class 2"}
{"Compound": "Cc1c(-c2[nH]c3sc(N4C[C@@H](C)N(C5CCOCC5)C[C@@H]4C)nc3c2C(C)C)cn2ncnc2c1C [Example 329]", "Assigned label": "class 2"}
{"Compound": "Cc1c(-c2[nH]c3sc(C4CCN(C5CCOCC5)CC4)nc3c2C(C)C)cn2ncnc2c1C [Example 46]", "Assigned label": "class 0"}
{"Compound": "Cc1c(-c2[nH]c3sc(N4CCN(C(=O)CN(C)C)C[C@@H]4C)nc3c2C(C)C)cn2ncnc2c1C [Example 346]", "Assigned label": "class 1"}
{"Compound": "CNCCNC1CCC(c2nc3c(C(C)C)c(-c4cc(OC)c5ncnn5c4)[nH]c3s2)CC1 (single isomer, unassigned) [Example 171]", "Assigned label": "class 0"}
{"Compound": "CCC1(NC2CCC(c3nc4c(C(C)C)c(-c5cc(OC)c6ncnn6c5)[nH]c4s3)CC2)COC1 (single isomer, unassigned) [Example 94]", "Assigned label": "class 1"}
{"Compound": "Cc1cc(-c2[nH]c3sc(C4CCN(CC5(C)COC5)CC4)nc3c2C(C)C)cc(C)n1 [Example 27]", "Assigned label": "class 0"}
{"Compound": "Cc1c(-c2[nH]c3sc(N4CCN(C5COC5)C[C@H]4C)nc3c2C(C)C)cn2ncnc2c1C [Example 316]", "Assigned label": "class 2"}
{"Compound": "Cc1c(-c2[nH]c3sc(C4CCN(C(C)C)CC4)nc3c2C(C)C)cn2ncnc2c1C [Example 44]", "Assigned label": "class 0"}
{"Compound": "Cc1cc(-c2[nH]c3sc(C4CCC(N5CC6(COC6)C5)CC4)nc3c2C(C)C)cn2ncnc12 (single isomer, unassigned) [Example 136]", "Assigned label": "class 1"}
